target: papain (Carica papaya); construct: purchased Sigma Chemical Co. (St. Louis, MO); type: biochemical; conditions: 100 μM inhibitor, 30 min at 25° C.
Sequence (P00784 134-345): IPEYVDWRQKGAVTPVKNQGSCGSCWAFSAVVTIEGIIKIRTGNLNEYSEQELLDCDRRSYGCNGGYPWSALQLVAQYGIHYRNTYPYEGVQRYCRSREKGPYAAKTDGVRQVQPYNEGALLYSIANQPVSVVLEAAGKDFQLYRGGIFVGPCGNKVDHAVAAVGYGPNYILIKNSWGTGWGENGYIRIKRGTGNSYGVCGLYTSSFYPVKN
Where a SMILES comes first, the peptide text is derived from it. [ ]: non-standard residue; d: D form. The star is where a group is joined. ξ: configuration not given here. ξF = NC(Cc1ccccc1)C(=O)O; Cbz = O=C(OCc1ccccc1)*; ξV = CC(C)C(N)C(=O)O; CHN2 = [N-]=[N+]=C*; ξP = O=C(O)C1CCCN1
Quantity kind: percent inhibition of papain (%)
Answers are plain numbers, in %.

Compound	U	percent inhibition of papain
[N-]=[N+]=CC(=O)CNC(=O)C1CCCN1C(=O)OCc1ccccc1 (stereo not drawn) [D3, Z-Pro-Gly diazomethyl ketone] (Cbz-[ξP]-Gly-CHN2)	%	15
[N-]=[N+]=CC(=O)CNC(=O)C(Cc1ccccc1)NC(=O)OCc1ccccc1 (stereo not drawn) [D2, Z-Phe-Gly diazomethyl ketone] (Cbz-[ξF]-Gly-CHN2)	%	88

Okay, here is my list. What is percent inhibition of papain for each of these?
1. CC(C)C(NC(=O)CNC(=O)CNC(=O)OCc1ccccc1)C(=O)C=[N+]=[N-] (stereo not drawn) [D4, Z-Gly-Gly-Val diazomethyl ketone] (Cbz-Gly-Gly-[ξV]-CHN2)
2. C[C@H](NC(=O)[C@H](Cc1ccccc1)NC(=O)OCc1ccccc1)C(=O)C=[N+]=[N-] [D1, Z-Phe-Ala diazomethyl ketone]
3. CC(NC(=O)OCc1ccccc1)C(=O)NC(C)C(=O)N1CCCC1C(=O)C=[N+]=[N-] (stereo not drawn) [D5, Z-Ala-Ala-Pro diazomethyl ketone] (Cbz-Ala-Ala-Pro-CHN2; configuration not given here)
4. CC(NC(=O)C(C)NC(=O)OCc1ccccc1)C(=O)C=[N+]=[N-] (stereo not drawn) [D6, Z-Ala-Ala diazomethyl ketone]

**Result**
[2, 85, 2, 31]
